- Experimental System: FAD-linked sulfhydryl oxidase ALR (Homo sapiens) (UniProt P55789)
- Sequence (P55789 whole entry, looked up): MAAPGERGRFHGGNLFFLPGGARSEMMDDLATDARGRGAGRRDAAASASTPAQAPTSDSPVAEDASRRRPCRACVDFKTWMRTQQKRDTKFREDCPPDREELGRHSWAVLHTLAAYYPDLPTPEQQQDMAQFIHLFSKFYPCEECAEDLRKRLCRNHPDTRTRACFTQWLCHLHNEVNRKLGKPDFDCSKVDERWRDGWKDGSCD
- Assay Method Text: ALR-catalysed DTT oxidation blockers – biochemical, H2O2 detection, HRP-luminol luminescence, single point, primary screen (AID 485317)
- Condition Set: purified ALR, concentration not given here
About 11,000 (3.8%) of roughly 290,000 compounds were called active.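 How the source made its calls: active means mean replicate inhibition above about 79%, with every replicate also reaching it (limit read from the data); inconclusive means only one of the two criteria met; inactive means mean below limit and not every replicate reaching it.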 The entries come from a sample that favours actives as a whole.
# valid calls are active, inactive; nothing else

The examples below pair each entry with its known result.
[
  {
    "Compound": "CCOC(=O)c1sc(NC(=O)CSc2nc(O)c(Cc3ccccc3)c(=O)[nH]2)nc1C",
    "Class Assignment": "active"
  },
  {
    "Compound": "Cc1cccc(C)c1Nc1nnc(SCC(=O)Nc2sccc2C#N)s1",
    "Class Assignment": "inactive"
  },
  {
    "Compound": "CCOC(=O)c1sc(NC(=O)CSc2n[nH]c(CC)n2)nc1C",
    "Class Assignment": "inactive"
  },
  {
    "Compound": "c1ccc(-c2cc(-c3ccccc3)[nH]n2)cc1",
    "Class Assignment": "inactive"
  },
  {
    "Compound": "COc1ccc(S(=O)(=O)NCc2cccnc2)cc1NC(=O)c1ccc(C)cc1",
    "Class Assignment": "inactive"
  }
]

Each compound tested received a call. Report the one for CC1CCCCC1NC(=O)COc1ccc(C#N)cc1 (stereo not drawn) .
inactive

Each compound tested received a call. Report the one for COc1ccc(N2CCN(CCNC(=O)CCN3C(=O)COc4ccccc43)CC2)cc1 .
active

Each compound tested received a call. Report the one for Cc1ccc(C(=O)NC2CCCC(C)C2C)cc1S(=O)(=O)N1CCCCC1 (stereo not drawn) .
inactive

Each compound tested received a call. Report the one for O=C(Nc1cc(S(=O)(=O)Nc2ccc(Cl)cc2)ccc1O)c1ccc(F)cc1F .
inactive

Each compound tested received a call. Report the one for Cc1cc(NC(=O)CSCc2ccccc2C)no1 .
inactive

Each compound tested received a call. Report the one for CCCN1CCN(CCCNC(=O)CN2C(=O)COc3ccccc32)CC1 .
inactive

====

- Experimental System: FAD-linked sulfhydryl oxidase ALR (Homo sapiens)
- Assay Method Text: ALR-catalysed DTT oxidation blockers – biochemical, H2O2 detection, HRP-luminol luminescence, single point, primary screen (AID 485317)
- Condition Set: purified ALR, concentration not given here
About 11,000 (3.8%) of roughly 290,000 compounds were called active.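 Rule for the calls: active = mean replicate inhibition above about 79%, with every replicate also reaching it (limit read from the data); inconclusive = only one of the two criteria met; inactive = mean below limit and not every replicate reaching it.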 The list comes from a sample in which actives are over-represented; it also holds close analogues and randomly drawn compounds.
# valid calls are TRUE (active), FALSE (inactive); nothing else

The examples below pair each entry with its known result.
[
  {
    "Compound": "CN(CC(=O)Nc1ccc(OC(F)F)cc1)S(=O)(=O)/C=C/c1ccccc1",
    "Experimental System": "FAD-linked sulfhydryl oxidase ALR (Homo sapiens)",
    "Class Assignment": "FALSE"
  },
  {
    "Compound": "CN(CC(=O)NC1CCN(Cc2ccccc2)CC1)S(=O)(=O)c1ccc(Cl)s1",
    "Experimental System": "FAD-linked sulfhydryl oxidase ALR (Homo sapiens)",
    "Class Assignment": "FALSE"
  },
  {
    "Compound": "O=C(O)c1ccc(/C=N/Nc2nc(N3CCCCC3)nc(N3CCCCC3)n2)cc1",
    "Experimental System": "FAD-linked sulfhydryl oxidase ALR (Homo sapiens)",
    "Class Assignment": "FALSE"
  },
  {
    "Compound": "CCOC(=O)Cc1csc(NC(=O)CSc2ccc(Br)cc2)n1",
    "Experimental System": "FAD-linked sulfhydryl oxidase ALR (Homo sapiens)",
    "Class Assignment": "FALSE"
  },
  {
    "Compound": "COc1ccc(N2CCN(C(=O)COC(=O)c3cccc(S(=O)(=O)Nc4ccccc4OC)c3)CC2)cc1",
    "Experimental System": "FAD-linked sulfhydryl oxidase ALR (Homo sapiens)",
    "Class Assignment": "FALSE"
  },
  {
    "Compound": "O=C(/C=C/c1cccc([N+](=O)[O-])c1)NCCSCc1ccco1",
    "Experimental System": "FAD-linked sulfhydryl oxidase ALR (Homo sapiens)",
    "Class Assignment": "TRUE"
  },
  {
    "Compound": "Cc1[nH]n(-c2cccc(Cl)c2)c(=O)c1-c1ccc(Cl)cc1",
    "Experimental System": "FAD-linked sulfhydryl oxidase ALR (Homo sapiens)",
    "Class Assignment": "FALSE"
  },
  {
    "Compound": "CC(=O)c1ccc(N2CCN(C(=O)CCc3ccccc3)CC2)cc1",
    "Experimental System": "FAD-linked sulfhydryl oxidase ALR (Homo sapiens)",
    "Class Assignment": "FALSE"
  }
]

Each compound tested received a call. Report the one for CC(C)(C)c1nnc(N/N=C/c2ccc(O)cc2)n(N)c1=O .
TRUE

Each compound tested received a call. Report the one for O=C(CSc1nc(C2CC2)nc2ccccc12)Nc1ccc2c(c1)OCCO2 .
FALSE

Each compound tested received a call. Report the one for O=C(Nc1cccc(F)c1)c1cc(-c2ccco2)nc2ccccc12 .
FALSE
